target.under.test: kinase-domain human PKCι (Homo sapiens)
Construct: Recombinant, kinase-domain human PKCι is expressed and purified in-house; made in house
experimental.protocol: PKCι IC50 IMAP fluorescence polarisation assay, kinase-domain enzyme
Format: biochemical
measurement.context: kinase domain PKCi at 2 μM ATP; read-out: IC50 in IMAP assay against kinase domain PKCi (Activity)

| mol | IC50 |
| --- | --- |
| N[C@H](COc1nc(-c2ccncc2)nc2sc3c(c12)CCCC3)Cc1ccccc1 | 0.1 to 1 µM |
| NCCNc1nc(-c2ccncc2F)nc2sc3c(c12)CCCC3 | 1 to 10 µM |
| N[C@H](COc1nc(-c2ccncc2)nc2sc3c(c12)CCCC3)Cc1c[nH]cn1 | 10 to 40 µM |
| c1n[nH]cc1-c1nc(N2CCCNCC2)c2c3c(sc2n1)CCCC3 | 0.1 to 1 µM |
| CN1CCCN(c2nc(-c3ccncc3)nc3sc4c(c23)CCCC4)CC1 | 0.1 to 1 µM |
| Cc1c(C(N)=O)sc2nc(-c3ccncc3)nc(NC[C@@H](N)Cc3ccccc3)c12 | 0.1 to 1 µM |
| CCCN1CCN(c2nc(-c3ccncc3)nc3sc4c(c23)CCCC4)CC1 | 10 to 40 µM |

====

target.under.test: full-length human PKCι (Homo sapiens, UniProt P41743)
Construct: Recombinant, full-length human PKCι expressed in Sf21 insect cells is also commercially available; purchased; host or cells: Sf21 insect cells
experimental.protocol: PKCι IC50 IMAP fluorescence polarisation assay, full-length enzyme
Assay type: biochemical
measurement.context: full length PKCi at 15 μM ATP; read-out: IC50 in IMAP assay against full length PKCi
reported.metric: IC50

| mol | result |
| --- | --- |
| C=Cc1csc2c(NC[C@@H](N)Cc3ccccc3)nc(-c3ccncc3)nc12 | < 0.1 µM |
| O=C(Nc1cc(-c2nc(N[C@@H]3CCNC3)c3sccc3n2)ccn1)C1CC1 | 0.1 to 1 µM |
| CC(C)(C)c1ccc(-c2cc3nc(-c4ccncc4)nc(N4CCNCC4)c3s2)cc1 | 10 to 40 µM |
| CC(C)(C)c1sc2c(NC[C@H](N)Cc3ccccc3)nc(-c3ccncc3)nc2c1Br | 10 to 40 µM |
| CCC[C@@H](C)[C@H](O)C#Cc1csc2c(NC[C@@H](N)Cc3ccccc3)nc(-c3ccncc3)nc12 | 1 to 10 µM |
| CN(C)CCNc1nc(-c2ccncc2)nc2c(Br)csc12 | 10 to 40 µM |
| CNC(=O)Nc1cc(-c2nc(N[C@@H]3CCNC3)c3sccc3n2)ccn1 | 1 to 10 µM |
| Cc1sc2c(NC[C@@H](N)Cc3ccccc3)nc(-c3ccncc3)nc2c1C#CC(C)(C)O | < 0.1 µM |
| c1cc(-c2nc(N[C@@H]3CCNC3)c3scc(-c4ccn[nH]4)c3n2)ccn1 | < 0.1 µM |
| CC(C)[C@](C)(O)C#Cc1csc2c(NC[C@@H](N)Cc3ccccc3)nc(-c3ccncc3)nc12 | 1 to 10 µM |
| N[C@H](CNc1nc(-c2ccncc2)nc2c(CCC3CC3)csc12)Cc1ccccc1 | 1 to 10 µM |
| C[C@H](O)C#Cc1csc2c(N[C@@H]3CCNC3)nc(-c3ccncc3F)nc12 | 10 to 40 µM |
| N[C@H](CNc1nc(-c2cc[n+]([O-])cc2)nc2c(Br)csc12)Cc1ccccc1 | 1 to 10 µM |
| O=S(=O)(Nc1cc(-c2nc(N[C@@H]3CCNC3)c3sccc3n2)ccn1)C1CC1 | 10 to 40 µM |
| O=C(Nc1csc2c(N[C@@H]3CCNC3)nc(-c3ccncc3)nc12)C1CCCCC1 | 10 to 40 µM |
| Cc1ccc(-c2c(C(C)(C)C)sc3c(NC[C@@H](N)Cc4ccccc4)nc(-c4ccncc4)nc23)s1 | 1 to 10 µM |
| c1ccc(CNc2cc(-c3nc(N[C@@H]4CCNC4)c4sccc4n3)ccn2)cc1 | 1 to 10 µM |
| C[C@H](O)C#Cc1csc2c(NC[C@@H](N)Cc3ccccc3)nc(-c3ccncc3F)nc12 | 0.1 to 1 µM |
| N[C@H](CNc1nc(-c2ccncc2)nc2c(C#CCCCO)csc12)Cc1ccccc1 | 1 to 10 µM |
| C[C@H](O)CNc1cc(-c2nc(N[C@@H]3CCNC3)c3sccc3n2)ccn1 | 1 to 10 µM |
| N[C@H](CNc1nc(-c2ccncc2)nc2c(-c3ccc(F)cc3)csc12)Cc1ccccc1 | 0.1 to 1 µM |
| COc1ccc(F)cc1-c1c(C)sc2c(NC[C@@H](N)Cc3ccccc3)nc(-c3ccncc3)nc12 | 10 to 40 µM |
| CC(C)(C)c1cc2nc(-c3ccncc3)nc(NC[C@@H](N)Cc3ccccc3)c2s1 | 10 to 40 µM |
| O=C(Nc1csc2c(N[C@@H]3CCNC3)nc(-c3ccncc3)nc12)C1CCCC1 | 10 to 40 µM |
| CNc1ccc(-c2c(C(C)(C)C)sc3c(NC[C@@H](N)Cc4ccccc4)nc(-c4ccncc4)nc23)cc1 | 1 to 10 µM |
| CC(C)(C)NC(=O)Nc1cc(-c2nc(N[C@@H]3CCNC3)c3sccc3n2)ccn1 | 1 to 10 µM |
| C[C@@H](O)CNc1cc(-c2nc(N[C@@H]3CCNC3)c3sccc3n2)ccn1 | 1 to 10 µM |
| Cc1c(Br)sc2c(NC[C@@H](N)Cc3ccccc3)nc(-c3ccncc3)nc12 | 0.1 to 1 µM |
| Cc1c(-c2ccnn2C)sc2c(N[C@@H]3CCNC3)nc(-c3ccncc3)nc12 | 10 to 40 µM |
| CN(C)S(=O)(=O)c1ccc(Nc2cc(-c3nc(N[C@@H]4CCNC4)c4sccc4n3)ccn2)cc1 | 1 to 10 µM |
| CC(C)NC(=O)c1csc2c(NC[C@@H](N)Cc3ccccc3)nc(-c3ccncc3)nc12 | 1 to 10 µM |
| CCCNC(=O)c1csc2c(NC[C@@H](N)Cc3ccccc3)nc(-c3ccncc3)nc12 | 0.1 to 1 µM |

====

target.under.test: full-length human PKCι (Homo sapiens)
Construct: Recombinant, full-length human PKCι expressed in Sf21 insect cells is also commercially available; purchased; host or cells: Sf21 insect cells
Sequence (P41743 1-596): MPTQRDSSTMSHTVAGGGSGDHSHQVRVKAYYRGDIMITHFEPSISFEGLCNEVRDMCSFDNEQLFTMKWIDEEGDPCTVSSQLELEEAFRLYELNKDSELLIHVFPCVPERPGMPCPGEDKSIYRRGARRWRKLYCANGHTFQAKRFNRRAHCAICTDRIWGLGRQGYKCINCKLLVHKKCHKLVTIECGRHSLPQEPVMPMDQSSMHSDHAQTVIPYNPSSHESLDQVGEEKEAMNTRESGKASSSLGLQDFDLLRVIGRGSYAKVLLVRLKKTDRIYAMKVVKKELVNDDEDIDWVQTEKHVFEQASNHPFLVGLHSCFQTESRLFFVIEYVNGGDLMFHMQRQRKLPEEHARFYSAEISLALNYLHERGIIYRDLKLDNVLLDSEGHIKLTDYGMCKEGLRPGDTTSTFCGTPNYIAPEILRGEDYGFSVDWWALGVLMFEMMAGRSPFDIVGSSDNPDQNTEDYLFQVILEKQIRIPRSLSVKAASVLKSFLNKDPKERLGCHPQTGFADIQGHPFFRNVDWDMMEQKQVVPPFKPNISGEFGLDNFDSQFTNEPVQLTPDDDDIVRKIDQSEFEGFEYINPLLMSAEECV
experimental.protocol: PKCι IC50 IMAP fluorescence polarisation assay, full-length enzyme
Format: biochemical
measurement.context: enzyme form not given; no asterisk; read-out: Activity (IC50 printed as a bound, no asterisk)
Description: Assays are based on the ability of PKCι to phosphorylate a commercially available peptide substrate in vitro. […] Recombinant, full-length human PKCι expressed in Sf21 insect cells is also commercially available. Recombinant, kinase-domain human PKCι is expressed and purified in-house. The procedure below explains how dose response curves for inhibitors of PKCι are obtained. Compounds to be tested are dissolved in 100% DMSO. […]

| mol | target.under.test | IC50 |
| --- | --- | --- |
| Cn1cc(-c2nc(NCCN)c3c4c(sc3n2)CCCC4)cn1 | full-length human PKCι (Homo sapiens) | > 60 µM |

====

target.under.test: kinase-domain human PKCι (Homo sapiens, UniProt P41743)
Construct: Recombinant, kinase-domain human PKCι is expressed and purified in-house; made in house
Sequence (P41743 254-522 limits assumed): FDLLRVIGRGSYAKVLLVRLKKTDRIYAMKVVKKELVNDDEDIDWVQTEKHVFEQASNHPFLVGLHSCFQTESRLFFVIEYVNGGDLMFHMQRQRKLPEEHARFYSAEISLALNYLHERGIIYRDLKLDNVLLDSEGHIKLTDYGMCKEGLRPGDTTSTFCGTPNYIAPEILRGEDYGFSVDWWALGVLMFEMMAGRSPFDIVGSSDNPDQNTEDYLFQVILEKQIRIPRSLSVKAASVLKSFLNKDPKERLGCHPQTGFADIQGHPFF
experimental.protocol: PKCι IC50 IMAP fluorescence polarisation assay, kinase-domain enzyme
Format: biochemical
measurement.context: kinase domain PKCi at 2 μM ATP; read-out: IC50 in IMAP assay against kinase domain PKCi (Activity)
pIC50: −log10 of the molar value.
pIC50 values, listed per item

| compound | pIC50 |
| --- | --- |
| Cc1csc2nc(-c3ccncc3)nc(N3CCNCC3)c12 [compound 94] | > 7.00 |
| NCCOc1nc(-c2ccncc2)nc2sc3c(c12)CCCC3 [compound 136] | 6.00 to 7.00 |
| CC(C)Cc1csc2nc(-c3ccncc3)nc(NC[C@@H](C)N)c12 [compound 30] | 5.00 to 6.00 |
| c1cc(-c2nc(N[C@@H]3CCNC3)c3c4c(sc3n2)CCCC4)ccn1 [compound 19] | 6.00 to 7.00 |
| Brc1ccc(CN2CCN(c3nc(-c4ccncc4)nc4sc5c(c34)CCCC5)CC2)cc1 [compound 117] | 4.40 to 5.00 |
| CNCCOc1nc(-c2ccncc2)nc2sc3c(c12)CCCC3 [compound 137] | 5.00 to 6.00 |
| NCCNc1nc(-c2cn[nH]c2)nc2sc3c(c12)CCCC3 [compound 181] | 6.00 to 7.00 |
| c1ccc(CN2CCN(c3nc(-c4ccncc4)nc4sc5c(c34)CCCC5)CC2)nc1 [compound 120] | 4.40 to 5.00 |
| c1cc(-c2nc(OC[C@H]3CCCCN3)c3c4c(sc3n2)CCCC4)ccn1 [compound 178] | 5.00 to 6.00 |
